Please go through the items and note down their solubility at 20 h.
- test_protocol: Solubility of the compound in phosphate buffer at pH 7.5 after 20 hrs by UV spectrophotometry
- Assay type: physicochemical
The answer is to be given in µg/mL; state only the numeric part.

Query: Report solubility at 20 h for COc1ccc2cc3[n+](cc2c1OCCN(CCn1cncc1[N+](=O)[O-])Cc1ccc(Cl)cc1)CCc1cc2c(cc1-3)OCO2.[Cl-] please.
Reply: 68.1

Query: What measured solubility at 20 h goes with COc1ccc2cc3[n+](cc2c1OCCN(CCn1cncc1[N+](=O)[O-])Cc1ccc(F)cc1F)CCc1cc2c(cc1-3)OCO2.[Cl-] ?
Reply: 98.1

Query: Which solubility at 20 h is listed for COc1ccc2cc3[n+](cc2c1OCCN(CCn1cncc1[N+](=O)[O-])Cc1ccccc1Cl)CCc1cc2c(cc1-3)OCO2.[Cl-] ?
Reply: 86.4

Query: Could you tell me which solubility at 20 h is on file for COc1ccc2cc3[n+](cc2c1OCCN(CCn1cncc1[N+](=O)[O-])Cc1cccc(Cl)c1)CCc1cc2c(cc1-3)OCO2.[Cl-] ?
Reply: 71.3
